test system: mitochondrial membrane potential (ΔΨm); assay: Membrane potential (ΔΨm) counterscreen with TMRM; details: Table 8, glutamate, malate, nigericin
PARAMETER_MEASURED: ΔΨm
Keep it simple and answer with nothing but the number.

In the examples that follow, each entry is paired with its recorded ΔΨm.
>>> endpoint_result("COc1cccc(CCNC2C3CC4CC(C3)CC2C4)c1 (centres unmarked) [Compound 26]")
"−0.7"
>>> endpoint_result("Fc1ccc(N2CCN(CC(c3ccccc3)c3ccccc3)CC2)cc1 [Compound 39]")
0.5
>>> endpoint_result("c1ccc(C2CCC(Nc3ccc4c(c3)OCO4)CC2)cc1 (centres unmarked) [Compound 77]")
1
>>> endpoint_result("COc1ccc(Cl)cc1N(Cc1ccccc1)Cc1ccccc1 [Compound 34]")
3.4

ΔΨm on mitochondrial membrane potential (ΔΨm) for CN(C)CCCN(CCCN(C)C)Cc1cccnc1 [Compound 33] is 0.4

* * *

Biological target: glycerol-3-phosphate dehydrogenase (GPDH) (Rattus norvegicus)
Construct: The activity of GPDH in intact mitochondria (0.3 mg/mL) was measured; from tissue; host or cells: rat skeletal muscle mitochondria (Wistar, Harlan Laboratories)
Sequence (P35571 43-727): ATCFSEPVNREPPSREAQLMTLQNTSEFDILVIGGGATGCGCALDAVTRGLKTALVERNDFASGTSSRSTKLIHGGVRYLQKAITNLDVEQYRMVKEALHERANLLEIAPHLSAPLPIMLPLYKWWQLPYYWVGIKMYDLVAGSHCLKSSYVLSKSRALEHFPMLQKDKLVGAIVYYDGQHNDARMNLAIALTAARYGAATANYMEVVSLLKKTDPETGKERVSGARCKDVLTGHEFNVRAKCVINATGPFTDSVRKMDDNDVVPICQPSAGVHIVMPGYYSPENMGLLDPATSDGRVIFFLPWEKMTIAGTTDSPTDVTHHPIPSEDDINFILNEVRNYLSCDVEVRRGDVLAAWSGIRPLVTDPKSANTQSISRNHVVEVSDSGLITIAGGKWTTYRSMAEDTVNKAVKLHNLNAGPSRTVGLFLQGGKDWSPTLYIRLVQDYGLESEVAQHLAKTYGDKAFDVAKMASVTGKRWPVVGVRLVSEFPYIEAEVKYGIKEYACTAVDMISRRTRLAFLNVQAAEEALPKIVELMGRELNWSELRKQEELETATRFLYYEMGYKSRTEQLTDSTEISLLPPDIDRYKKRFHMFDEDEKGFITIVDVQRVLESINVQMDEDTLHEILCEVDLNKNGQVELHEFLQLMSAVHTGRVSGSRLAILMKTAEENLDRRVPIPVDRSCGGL
Experiment: High-throughput screen: ROS production from glycerol-3-phosphate dehydrogenase (GPDH)
Assay type: biochemical
Settings: Table 8; percent change in ROS from DMSO controls
PARAMETER_MEASURED: GPDH
Keep it simple and answer with nothing but the number.

In the examples that follow, each entry is paired with its recorded GPDH.
>>> endpoint_result("CC1CC(C)(C)N(C=O)c2ccccc21 (stereo not drawn)")
"−0.6"
>>> endpoint_result("Cc1ccc(CCSc2ccc(F)cc2)cn1")
"−5.3"

Entry O=C(Nc1ccc(Br)cc1)[C@@H]1C2C=CC(C2)[C@@H]1C(=O)O (stereo partly drawn) — recorded GPDH = −2.3

* * *

target: flavin binding site of complex I (IF) (Rattus norvegicus); construct: freshly isolated muscle mitochondria were assayed; from tissue; host or cells: rat skeletal muscle mitochondria (Wistar, Harlan Laboratories); test: High-throughput screen: ROS production from flavin binding site of complex I (IF); assay type: biochemical; settings: Table 7; percent change in ROS from DMSO controls; read-out: IF
Sequence (Q5XIH3 21-464 limits assumed, one chain of several): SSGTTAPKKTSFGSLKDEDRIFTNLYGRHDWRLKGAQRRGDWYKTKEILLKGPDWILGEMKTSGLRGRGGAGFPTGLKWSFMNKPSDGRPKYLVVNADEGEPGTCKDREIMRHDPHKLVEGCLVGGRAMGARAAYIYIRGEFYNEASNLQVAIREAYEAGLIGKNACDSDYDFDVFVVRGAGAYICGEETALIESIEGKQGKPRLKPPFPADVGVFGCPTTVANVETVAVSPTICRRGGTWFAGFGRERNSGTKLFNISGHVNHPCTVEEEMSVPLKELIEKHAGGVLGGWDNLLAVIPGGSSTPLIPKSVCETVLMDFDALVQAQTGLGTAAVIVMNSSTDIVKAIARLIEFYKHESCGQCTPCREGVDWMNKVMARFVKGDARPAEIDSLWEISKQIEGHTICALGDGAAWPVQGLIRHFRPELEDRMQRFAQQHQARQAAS
PARAMETER_MEASURED: inhibition at 2.5 µM (%)
Give the number; % is assumed, so skip it.

In the examples that follow, each entry is paired with its recorded inhibition at 2.5 µM.
>>> endpoint_result("O=C(O)C1CCCCC1C(=O)NC1CCCCCCC1 (centres unmarked) [Compound 30]")
36.9
>>> endpoint_result("O=C(O)CCC(=O)Nc1ccc(-c2nc3ccccc3s2)cc1 [Compound 65]")
1.3
>>> endpoint_result("Cc1ccccc1NS(=O)(=O)c1ccc(-c2ccc(S(=O)(=O)Nc3ccccc3C)cc2)cc1 [Compound 12]")
1.7
>>> endpoint_result("CC1=CC(C)C(C2OCC(CN3CCCCC3)O2)C(C)C1 (centres unmarked) [Compound 13]")
39

We now examine a further molecule.
Entry CCSC1=C(C#N)C2(CCCC2)C(C#N)C(=O)N1 (centres unmarked) [Compound 2] — recorded inhibition at 2.5 µM = 7
